# System: mono-methyl arginine in RKO cells
# protocol-notes: RKO Methylation Assay, In Cell Western (ICW) for mono-methyl arginine and DNA content
# Assay type: cell-based
# particulars: Homo sapiens, RKO, 72 h, RKO cells, 72 hours, mono-methyl arginine, percent activation; single experiment or average of multiple experiments; read-out: EC30 (In Cell Western data, Numerical)
Catalogue of compounds with associated log10 of EC30
test-readout: log10 of EC30 (log10 of the value in µM)

>  <line-notation>
Cc1cccc(-c2n[nH]cc2CN(C)CCN)c1

>  <value>
0.41

$$$$
>  <line-notation>
CCOc1ccc(-c2n[nH]cc2CN(C)CCN)cc1

>  <value>
-0.36

$$$$
>  <line-notation>
CNCCN(C)Cc1c[nH]nc1-c1ccc(OC(C)C)c(F)c1

>  <value>
-1.34

$$$$
>  <line-notation>
CN(CCN)Cc1c[nH]nc1-c1cc(Cl)ccc1F

>  <value>
0.98

$$$$
>  <line-notation>
CN(CCN)Cc1c[nH]nc1-c1ccc(Oc2ccc(F)cc2)cc1

>  <value>
-0.16

$$$$
>  <line-notation>
CNCCN(C)Cc1n[nH]cc1-c1ccc(Oc2cccc(OC)c2)cc1

>  <value>
0.11

$$$$
>  <line-notation>
COc1cc(Cl)cc(-c2n[nH]cc2CN(C)CCN)c1

>  <value>
0.85

$$$$

Origin of the recorded values: patent US9776972B2
